The entries below come with measured Potency values attached.
assay_comment: qHTS Assay for Modulators of miRNAs and/or Inhibitors of miR-21; also: potency is read from the fitted curve at half-maximal effect; nearly all actives have a fitted effect of over 55% in size
condition_info: HeLa miR-21-FLuc reporter, luciferase luminescence, 48 h; actives lower the signal
Screen size: about 340,000 compounds; about 3,300 (0.97%) were called active. Another 9% or so got no clear call; they are omitted. The list shows a part of the results.
outcome_measure: Potency

structure_smiles_string: CCOC(=O)c1snc(C(=O)NC2CCCCC2)c1N
value_reported: 7.36 µM (active)
//
structure_smiles_string: COC(=O)c1ccsc1NC(=O)CCc1ccccc1
value_reported: 7.36 µM (active)
//
structure_smiles_string: O=c1cc(-c2ccccc2F)oc2ccccc12
value_reported: 5.21 µM (active)
//
structure_smiles_string: FC(F)(F)c1ccc(NCc2ccccn2)nc1
value_reported: 13.1 µM (active)
//
structure_smiles_string: O=c1c(Cl)c(N2CCN(c3ccc(F)cc3)CC2)cnn1-c1nc2ccccc2s1
value_reported: 3.29 µM (active)
//
structure_smiles_string: O=C(c1ccccc1-c1nc(-c2ccccc2)no1)N1CCCC1
value_reported: 18.5 µM (active)
//
structure_smiles_string: O=C(CSCc1ccccc1Cl)Nc1ccc2c(c1)OCCO2
value_reported: 2.07 µM (active)
//
structure_smiles_string: Brc1ccc(-c2nnc(Cc3ccccc3)o2)cc1
value_reported: 13.1 µM (active)
//
structure_smiles_string: COc1ccc(NC(=S)c2ccccc2)cc1
value_reported: 6.56 µM (active)
//
structure_smiles_string: COc1ccccc1N1CCN(c2nc3ccccn3c(=O)c2C=O)CC1
value_reported: 18.5 µM (active)
//
structure_smiles_string: Nc1c(-c2ccc3c(c2)OCCO3)oc2ccccc2c1=O
value_reported: 2.93 µM (active)
//
structure_smiles_string: Nc1c(C(=O)N/N=C/c2ccccc2)cnn1-c1ccccc1
value_reported: 1.47 µM (active)
//
structure_smiles_string: O=C(Nc1ccccc1F)c1ccc2ncsc2c1
value_reported: 9.27 µM (active)
//
structure_smiles_string: O=C(NNc1nc2cc3c(cc2s1)OCO3)c1ccccc1
value_reported: 13.1 µM (active)
//
structure_smiles_string: COc1ccc2c(c1)-c1nc(NC(=O)c3ccco3)sc1CC2
value_reported: 13.1 µM (active)
//
structure_smiles_string: CCc1ccc(C(=O)N/N=C(\C)c2ccncc2)s1
value_reported: 20.7 µM (active)
//
structure_smiles_string: O=C(NC1CCCCC1)c1ccc(-c2ccccc2[N+](=O)[O-])o1
value_reported: 1.17 µM (active)
//
structure_smiles_string: CC(C)C(=O)Nc1ccc(-c2nnc(-c3ccccc3)o2)cc1
value_reported: 0.261 µM (active)
//
structure_smiles_string: Cc1nc(NC(=O)CSc2nnc(-c3ccc4c(c3)OCO4)o2)c(Cl)cc1Cl
value_reported: 16.5 µM (active)
